experimental.system: T1, regulator of proteinase B (RopB), full-length, wild type (Streptococcus pyogenes (strain …))
T1 chain: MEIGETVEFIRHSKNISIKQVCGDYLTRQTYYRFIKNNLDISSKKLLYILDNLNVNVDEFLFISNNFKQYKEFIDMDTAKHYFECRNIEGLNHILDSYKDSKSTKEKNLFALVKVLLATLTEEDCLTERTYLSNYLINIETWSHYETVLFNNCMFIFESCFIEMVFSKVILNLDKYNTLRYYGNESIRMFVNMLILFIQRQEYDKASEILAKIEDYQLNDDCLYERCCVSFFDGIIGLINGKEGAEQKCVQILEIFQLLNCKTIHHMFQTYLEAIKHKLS
test.protocol: FP; pH 9.0
Where no end group is shown, it is not given here. The star is where a group is joined. FITC = O=C1OC2(c3ccc(O)cc3Oc3cc(O)ccc32)c2ccc(NC(=S)*)cc21
assay.readout: pKd
pKd is a log-scale quantity: -log10 of the concentration expressed in molar.

Prompt: Specify measured pKd for {FITC}-MWLLLLFL [synthetic SIP peptide containing fluorescein modification at its amino-terminus (FITC-SIP)] .
Completion: 6.50
